- SYSTEM_TESTED: T1, cynomolgus HER3-ECD-His (cynomolgus monkey, UniProt G7PIG5 20-643)
- T1 construct: extracellular domain; Bought protein (Sino Biological); also called Cyno HER3-ECD-His; Cyno HER3; not shown: His tag
- EXPERIMENTAL_PROTOCOL: Octet (BLI)

- BINDER: "cHE4-G1W (antibody, human IgG1, V domains shown, also called chimeric HE4 antibody; cHE4-G1W4; not shown: human IgG1 heavy chain constant region, GenBank AXN93653.1; human kappa light chain constant region, GenBank AWK57456.1) VH: EVQLVESGGGLVKPGGSLKLSCAASGFTFSSYVMSWVRQTPEKRLEWVATISDGDSSTYYPDNVKGRFTISRDNAKNNLFLQMSHLKSEDTAMYFCARDKGHGYDEGAFVYWGQGTLVTVSA VL: DIQMTQSPASLSASVEETVTITCRASENIYSYLAWYQQKQGKSPQLLVYNAKTLAEGVPSRFSGSGSGTEFSLKINSLQPEDFGSYYCQNHYGTPYTFGGGTKLEIKQ"
  kon [M⁻¹ s⁻¹]: 374000
- BINDER: "cHE7-G1W (antibody, human IgG1, V domains shown, also called chimeric HE7 antibody; not shown: human IgG1 heavy chain constant region, GenBank AXN93653.1; human kappa light chain constant region, GenBank AWK57456.1) VH: EVQLQQSGPDLVKPGTSVKMSCKASGYTFTDYYMHWVRQSHGKSLEWIGYINPNNGDAIYNQKFKGKATLTVDKSSTTAYMALRSLTSEDSAVYFCATYDYGGDFYFDVWGTGTTVTVSS VL: DIELTQSPALMSASPGEKVTMTCSASSSVSYMYWYQQKPRSSPKPWIYLTSNLASGVPARFSGSGSGTSYSLTISSMEAEDAATYYCQQWSRNPLTFGAGTKLELKR"
  kon [M⁻¹ s⁻¹]: 672000
- BINDER: "cHE1-G1W (antibody, human IgG1, V domains shown, also called chimeric HE1 antibody; not shown: human IgG1 heavy chain constant region, GenBank AXN93653.1; human kappa light chain constant region, GenBank AWK57456.1) VH: EVKLQESGPGLVKPSQSLSLTCSVTGYSITSGYYWNWIRQFPGNKLEWMGYISYDGSNNYNPSLKNRISITRDTSKNQFFLNLNSVTTEDTATYYCARVDWDGDAMDYWGQGTSVTVSS VL: DIVLTQSPASLAVSLGQRATISCRASESVDNYGIRLMHWYQQKSGQPPKLLIHRASNLESGIPARFSGSGSRTDFTLTINPVETDDVATYYCQQSNKDPFTFGSGTKLEIKR"
  kon [M⁻¹ s⁻¹]: 423000
- BINDER: "cHE6-G1W (antibody, human IgG1, V domains shown, also called chimeric HE6 antibody; not shown: human IgG1 heavy chain constant region, GenBank AXN93653.1; human kappa light chain constant region, GenBank AWK57456.1) VH: EVQLQQSGPDLVKPGTSVKMSCKASGYTFTDYYMHWVRQSHGKSLEWIGYINPNNGDAIYNQKFKGKATLTVNKSSTTAYMALRSLTSEDSAVYFCATYDYGGDFYFDVWGTGTTVTVSS VL: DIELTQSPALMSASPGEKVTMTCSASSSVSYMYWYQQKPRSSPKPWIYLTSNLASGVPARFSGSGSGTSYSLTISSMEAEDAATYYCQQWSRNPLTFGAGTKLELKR"
  kon [M⁻¹ s⁻¹]: 565000
- BINDER: "cHE2-G1W (antibody, human IgG1, V domains shown, also called chimeric HE2 antibody; not shown: human IgG1 heavy chain constant region, GenBank AXN93653.1; human kappa light chain constant region, GenBank AWK57456.1) VH: EVKLQESGPGLVKPSQSLSLTCSVTGYSITSGYYWNWIRQFPGNKLEWMGYISYDGSNNYNPSLKNRISITRDTSKNQFFLKLNSVTTEDTATYYCARMDWDGDAMDYWGQGTSVTVSS VL: DIVLTQSPASLAVSLGQRATISCRASESVDNYGISLMHWYQQKPGQPPKLLIYRASNLESGIPARFSGSGSRTDFTLTINPVETDDVATYYCQQSNKDPPTFGAGTKLELKR"
  kon [M⁻¹ s⁻¹]: 507000
- BINDER: "cHE5-G1W (antibody, human IgG1, V domains shown, also called chimeric HE5 antibody; not shown: human IgG1 heavy chain constant region, GenBank AXN93653.1; human kappa light chain constant region, GenBank AWK57456.1) VH: EVQLQESGPGLVKPSQSLSLTCSVTGYSITSGYYWNWIRQFPGNKLEWMGYISYDGSNNYNPSLKNRISITRDTSKNQFFLKLNSVTTEDTATYYCASYDYDGDWFAYWGQGTLVTVSA VL: DIVLTQSPASLAVSLGQRATISCRASESVDHYGSSFMHWYQQKPGQPPKLLIYRASNPESGIPARFSGSGSRTDFTLTINPVETDDVATYYCQQSNKDPPTFGGGTKLEIKR"
  kon [M⁻¹ s⁻¹]: 429000
